Test system: rGABA-gated Cl− channel
Assay: GABA-Gated Cl Channel Antagonist Radioligand Binding Assay
Design: species or system rat
Details: 10 μM single point, [35S]-TBPS, cerebral cortex membrane homogenates
observationType: rGABA-gated Cl− channel % inh @10 μM (%)
Dear colleague, please return just the value in %, with no unit written.

{"molecule": "CN1CCOC(c2ccc(N3C(=S)N(c4cnc(C#N)c(C(F)(F)F)c4)C(=O)C34CCC4)cc2)C1 (stereo not shown)", "rGABA-gated Cl− channel % inh @10 μM, %": 87.4}

Supply measured rGABA-gated Cl− channel % inh @10 μM of "C#CCN1CCC(Oc2ccc(N3C(=S)N(c4cnc(C#N)c(C(F)(F)F)c4)C(=O)C34CCC4)cn2)CC1" in your reply.
98.9

Tell us which rGABA-gated Cl− channel % inh @10 μM value is on record for N#Cc1ncc(N2C(=O)C3(CCC3)N(c3ccc(CC4CCC(N)CC4)cc3)C2=S)cc1C(F)(F)F (stereo not shown)
80.2

Specify rGABA-gated Cl− channel % inh @10 μM for "COC(=O)CN1CCC(Oc2ccc(N3C(=S)N(c4cnc(C#N)c(C(F)(F)F)c4)C(=O)C34CCC4)cc2)CC1" and stop.
99.2

Look up rGABA-gated Cl− channel % inh @10 μM of "N#Cc1ncc(N2C(=O)C3(CCC3)N(c3ccc(OC4CCNCC4)nc3)C2=S)cc1Cl" and report it.
5.8

Supply reported rGABA-gated Cl− channel % inh @10 μM belonging to this molecule: "N#Cc1ncc(N2C(=O)C3(CCC3)N(c3ccc(OC4CCN(CC(F)(F)F)CC4)cc3)C2=S)cc1C(F)(F)F"
67.5

Return rGABA-gated Cl− channel % inh @10 μM for the following molecule: "N#Cc1ncc(N2C(=O)C3(CCC3)N(c3ccc(C4=C[C@@H](O)[C@H](O)CO4)cc3)C2=S)cc1C(F)(F)F"
99.1

###

Target: F876L mutant Androgen Receptor (AR-F876L) (Homo sapiens (Human), UniProt P10275, F877L)
Sequence (P10275 whole entry F877L): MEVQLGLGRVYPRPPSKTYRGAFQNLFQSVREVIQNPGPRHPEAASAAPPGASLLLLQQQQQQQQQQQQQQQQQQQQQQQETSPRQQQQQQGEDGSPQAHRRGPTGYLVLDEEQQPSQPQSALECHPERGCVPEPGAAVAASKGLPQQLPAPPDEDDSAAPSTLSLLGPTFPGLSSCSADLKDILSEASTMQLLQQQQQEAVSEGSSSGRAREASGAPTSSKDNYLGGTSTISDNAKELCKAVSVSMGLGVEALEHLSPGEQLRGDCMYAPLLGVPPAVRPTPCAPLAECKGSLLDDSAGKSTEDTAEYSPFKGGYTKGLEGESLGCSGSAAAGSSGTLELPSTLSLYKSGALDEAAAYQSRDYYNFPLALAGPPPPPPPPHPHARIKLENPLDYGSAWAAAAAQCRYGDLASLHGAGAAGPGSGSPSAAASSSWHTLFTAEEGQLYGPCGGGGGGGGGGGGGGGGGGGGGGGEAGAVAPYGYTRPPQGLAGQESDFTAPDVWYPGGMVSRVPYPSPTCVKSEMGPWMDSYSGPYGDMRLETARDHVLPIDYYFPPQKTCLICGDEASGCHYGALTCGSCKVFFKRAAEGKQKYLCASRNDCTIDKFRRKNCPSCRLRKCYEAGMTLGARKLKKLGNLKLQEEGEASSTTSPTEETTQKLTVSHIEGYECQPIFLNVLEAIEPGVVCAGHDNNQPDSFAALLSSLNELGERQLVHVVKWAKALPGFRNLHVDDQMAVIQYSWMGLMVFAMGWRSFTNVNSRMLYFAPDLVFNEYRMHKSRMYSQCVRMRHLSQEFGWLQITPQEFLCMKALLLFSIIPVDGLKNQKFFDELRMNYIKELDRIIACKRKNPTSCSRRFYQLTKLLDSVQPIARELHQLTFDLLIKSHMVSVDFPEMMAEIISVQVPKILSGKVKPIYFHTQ
Test: LNCaP-AR-F876L ANT reporter assay (antagonist mode)
Type: cell-based
Conditions: maximum % inhibition of R1881 control response over the tested concentration range; read-out: LNCaP-AR-F876L ANT MAX % Inh
Readings of Emax for the listed molecules
Report the figure in % without appending any unit label.

{"molecule": "N#CCN1CCC(Oc2ccc(N3C(=S)N(c4cnc(C#N)c(C(F)(F)F)c4)C(=O)C34CCC4)cn2)CC1 [Cpd 60]", "observationType": "Emax", "result": 98.1}
{"molecule": "CC(C)(C)OC(=O)N1C2CCC1CC(c1ccc(N3C(=S)N(c4cnc(C#N)c(C(F)(F)F)c4)C(=O)C34CCC4)cc1)C2 (stereo not drawn) [Cpd 113]", "observationType": "Emax", "result": 83.6}
{"molecule": "COc1cc(N2C(=O)C3(CCC3)N(c3ccc(OC4CCNCC4)nc3)C2=S)cnc1C#N [Cpd 75]", "observationType": "Emax", "result": 101}
{"molecule": "CNC(=O)N1CCN(Cc2ccc(N3C(=S)N(c4cnc(C#N)c(C(F)(F)F)c4)C(=O)C34CCC4)cc2)CC1 [Cpd 53]", "observationType": "Emax", "result": 100}
{"molecule": "N#Cc1ncc(N2C(=O)C3(CCC3)N(c3ccc(OC4CCN(CC(F)(F)F)CC4)nc3)C2=S)cc1C(F)(F)F [Cpd 66]", "observationType": "Emax", "result": 95.5}

Quick one: give measured Emax for CCOC(=O)N1CCC(CNC(=O)c2ccc(N3C(=S)N(c4cnc(C#N)c(C(F)(F)F)c4)C(=O)C34CCC4)cc2)CC1 [Cpd 49]
99.5

Retrieve Emax measured for CC(C)(C)OC(=O)N1CCN(Cc2ccc(N3C(=S)N(c4cnc(C#N)c(C(F)(F)F)c4)C(=O)C34CCC4)cc2)CC1 [Cpd 47] and print it.
100

Fill in Emax for record N#Cc1ncc(N2C(=O)C3(CCC3)N(c3ccc(N4CCOCC4)cc3)C2=S)cc1C(F)(F)F [Cpd 69]
98.9

Please indicate Emax recorded for Cc1cc(N2C(=O)C3(CCC3)N(c3ccc(OCCCN(C)C)nc3)C2=S)cnc1C#N [Cpd 27]
101

Respond only with Emax recorded for COc1cc(N2C(=O)C3(CCC3)N(c3ccc(OC4CCNCC4)cc3)C2=S)cnc1C#N [Cpd 154]
100

Give the value of Emax reported for the following: CN1CCC(Cn2cc3cc(N4C(=S)N(c5cnc(C#N)c(C(F)(F)F)c5)C(=O)C45CCC5)ccc3n2)CC1 [Cpd 129]
100

Please supply the value of reported Emax for the item N#Cc1ncc(N2C(=O)C3(CCC3)N(c3ccc4c(cnn4CCO)c3)C2=S)cc1C(F)(F)F [Cpd 159]
100

Please list Emax recorded for the molecule N#Cc1ncc(N2C(=O)C3(CCC3)N(c3ccc(OC4CC5CC4CN5)nc3)C2=S)cc1C(F)(F)F (stereo not drawn) [Cpd 165]
100

Kindly indicate its recorded Emax. Item: CN1CCC(Oc2ccc(N3C(=S)N(c4cnc(C#N)c(C(F)F)c4)C(=O)C34CCC4)cc2)CC1 [Cpd 41]
99.9

Respond only with Emax recorded for N#Cc1ncc(N2C(=O)C3(CCC3)N(c3ccc(O[C@H]4CCNC[C@H]4F)cc3)C2=S)cc1C(F)(F)F (racemic) [Cpd 96]
99.9

###

Target: F876L mutant Androgen Receptor (AR-F876L) (Homo sapiens (Human), UniProt P10275, F877L)
Experiment: LNCaP-AR-F876L AG reporter assay (agonist mode)
Assay type: cell-based
observationType: EC50

Give the reported EC50 for this compound. "CN(C)C1(c2ccc(N3C(=S)N(c4cnc(C#N)c(C(F)(F)F)c4)C(=O)C34CCC4)cc2)COC1"
> 15.1 µM

###

Target: F876L mutant Androgen Receptor (AR-F876L) (Homo sapiens (Human), UniProt P10275, F877L)
Assay: LNCaP-AR-F876L ANT reporter assay (antagonist mode)
Type: cell-based
Conditions: antagonist mode; pIC50 = −Log10(IC50 in Molar); read-out: LNCaP-AR-F876L ANT pIC50 (converted)
Simple rule here: IC50 less than 200 nM is yes, otherwise no.

{"compound": "COCCN1CCC(Oc2ccc(N3C(=S)N(c4cnc(C#N)c(C(F)(F)F)c4)C(=O)C34CCC4)cn2)CC1 [Cpd 61]", "categoryLabel": "yes"}
{"compound": "CN1CCC[C@@H](CNC(=O)c2ccc(N3C(=S)N(c4cnc(C#N)c(C(F)(F)F)c4)C(=O)C34CCC4)cc2)C1 [Cpd 185]", "categoryLabel": "no"}
{"compound": "CCNC(=O)n1cc(-c2ccc(N3C(=S)N(c4cnc(C#N)c(C)c4)C(=O)C34CCC4)cc2)cn1 [Cpd 10]", "categoryLabel": "no"}

Determine if C#CCN1CCC(Oc2ccc(N3C(=S)N(c4cnc(C#N)c(C(F)(F)F)c4)C(=O)C34CCC4)cc2)CC1 [Cpd 107] shows IC50 strictly lower than 200 nM.
yes

IC50 strictly < 200 nM for this compound? CC(C)(C)OC(=O)NC1C(C)(C)C(Oc2ccc(N3C(=S)N(c4cnc(C#N)c(C(F)(F)F)c4)C(=O)C34CCC4)cc2)C1(C)C (stereo not shown) [Cpd 110]
yes

Does the reported IC50 of CCOC(=O)N1CCN(c2ccc(N3C(=S)N(c4cnc(C#N)c(C(F)(F)F)c4)C(=O)C34CCC4)cc2)CC1 [Cpd 58] stay below 200 nM?
yes

###

Target: AR-VP16 (Homo sapiens, UniProt P10275)
Sequence (P10275 whole entry, looked up): as the sequence (P10275 whole entry F877L) above, with L877F counted along it
Test: AR-VP16 DNA Binding Assay (VP16 WT)
Details: HepG2, antagonist mode, 90 pM R1881, 48 hours
observationType: pIC50
Please express pIC50 as -log10 of the molar concentration.

Fill in: pIC50 on AR-VP16 (Homo sapiens, UniProt P10275), entry N#Cc1ncc(N2C(=O)C3(CCC3)N(c3ccc(OC4CCNCC4)nc3)C2=S)cc1C(F)(F)F [Cpd 43]
5.11

###

Target: F876L mutant Androgen Receptor (AR-F876L) (Homo sapiens (Human), UniProt P10275, F877L)
Assay: LNCaP-AR-F876L AG reporter assay (agonist mode)
Format: cell-based
Settings: maximum % stimulation (agonist response) over the tested concentration range; read-out: LNCaP-AR-F876L AG MAX % Stim
observationType: Emax (%)
Please state the figure in %; there is no need to write the unit.

{"compound": "Cc1cc(N2C(=O)C3(CCC3)N(c3ccc(OCCCN(C)C)nc3)C2=S)cnc1C#N [Cpd 27]", "observationType": "Emax", "result": -0.1}
{"compound": "N#Cc1ncc(N2C(=O)C3(CCC3)N(c3ccc(OC4CCC(N)CC4)cc3)C2=S)cc1C(F)(F)F (stereo not drawn) [Cpd 68]", "observationType": "Emax", "result": 0.4}

Output Emax of CN1CCC(n2ncc3cc(N4C(=S)N(c5cnc(C#N)c(C(F)(F)F)c5)C(=O)C45CCC5)ccc32)CC1 [Cpd 109]
0.2

Source listed as patent US10981926B2.
